Please go through the items and note down their polymerase ribozyme fitness (log ratio).
B1: TPR t1 (parent)
chain: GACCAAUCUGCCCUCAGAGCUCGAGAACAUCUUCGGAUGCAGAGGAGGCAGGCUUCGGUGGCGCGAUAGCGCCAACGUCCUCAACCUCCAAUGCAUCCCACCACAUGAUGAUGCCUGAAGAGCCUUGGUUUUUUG

# Variants of: B1
# methodNotes: polymerase ribozyme fitness, log enrichment relative to wild type (log ratio); higher = more active; in vitro selection for triplet polymerase activity
Field format: numeric only.

Quick one: polymerase ribozyme fitness (log ratio) for C124A U125A ?
1.57

I'd like to know its polymerase ribozyme fitness (log ratio). The variant in question is A41U G113U
-3.98

Entry C72G G128C has what polymerase ribozyme fitness (log ratio)?
-2.25

Entry A6C A37C A111U has what polymerase ribozyme fitness (log ratio)?
-3.49

Need polymerase ribozyme fitness (log ratio), item C28U C49A G61U C86U
-2.72

Item U7G C72U G93C C115U has what recorded polymerase ribozyme fitness (log ratio)?
0.15

Return reported polymerase ribozyme fitness (log ratio); argument: A5U G19A A41U C94A C104U
-3.89

// query polymerase ribozyme fitness (log ratio) value for entry A18U G120A
-1.14

Item under review: A43G C53A C89G C97G C123G . Reported polymerase ribozyme fitness (log ratio)?
-5.57

Recorded polymerase ribozyme fitness (log ratio) for U55G C62A C88G , please?
-2.24

polymerase ribozyme fitness (log ratio) for C15A G45U A84U C123U ?
-2.4

Quick one: polymerase ribozyme fitness (log ratio) of C8U G36U U78C C88G C101A ?
-3.59

Field request: polymerase ribozyme fitness (log ratio) | item: G69U U129G
-1.02

Entry C15G G71A U81C has what polymerase ribozyme fitness (log ratio)?
-4.61

What value of polymerase ribozyme fitness (log ratio) has been reported for the following variant? G47U U54C C70U U96C U116C U129C
-4.8

Please give the measured polymerase ribozyme fitness (log ratio) for this variant: C70A U130C
-2.15

# polymerase ribozyme fitness (log ratio) lookup, item C62U U125A
-1.11

Would you kindly share the measured polymerase ribozyme fitness (log ratio) for G45A U112A ?
1.41

What measured polymerase ribozyme fitness (log ratio) goes with G44A C56U C72U G120C U129C ?
-2.55

Entry C89U C124U has what polymerase ribozyme fitness (log ratio)?
1.37

What value of polymerase ribozyme fitness (log ratio) has been recorded for this entry: G39U C86U
-1.64
